Value source: patent US20230310428A1

- assayedTarget: various mutants of kinase EGFR (BaF3 cell lines stably transfected with kinase) (Homo sapiens)
- Construct: other: BaF3 cells stably transfected with EGFR Δ19Del; MTS, 48 h; other: BaF3 cell line stably transfected with EGFR Δ19Del
- Sequence (P00533 with tags, fused parts or gaps DEL746-750): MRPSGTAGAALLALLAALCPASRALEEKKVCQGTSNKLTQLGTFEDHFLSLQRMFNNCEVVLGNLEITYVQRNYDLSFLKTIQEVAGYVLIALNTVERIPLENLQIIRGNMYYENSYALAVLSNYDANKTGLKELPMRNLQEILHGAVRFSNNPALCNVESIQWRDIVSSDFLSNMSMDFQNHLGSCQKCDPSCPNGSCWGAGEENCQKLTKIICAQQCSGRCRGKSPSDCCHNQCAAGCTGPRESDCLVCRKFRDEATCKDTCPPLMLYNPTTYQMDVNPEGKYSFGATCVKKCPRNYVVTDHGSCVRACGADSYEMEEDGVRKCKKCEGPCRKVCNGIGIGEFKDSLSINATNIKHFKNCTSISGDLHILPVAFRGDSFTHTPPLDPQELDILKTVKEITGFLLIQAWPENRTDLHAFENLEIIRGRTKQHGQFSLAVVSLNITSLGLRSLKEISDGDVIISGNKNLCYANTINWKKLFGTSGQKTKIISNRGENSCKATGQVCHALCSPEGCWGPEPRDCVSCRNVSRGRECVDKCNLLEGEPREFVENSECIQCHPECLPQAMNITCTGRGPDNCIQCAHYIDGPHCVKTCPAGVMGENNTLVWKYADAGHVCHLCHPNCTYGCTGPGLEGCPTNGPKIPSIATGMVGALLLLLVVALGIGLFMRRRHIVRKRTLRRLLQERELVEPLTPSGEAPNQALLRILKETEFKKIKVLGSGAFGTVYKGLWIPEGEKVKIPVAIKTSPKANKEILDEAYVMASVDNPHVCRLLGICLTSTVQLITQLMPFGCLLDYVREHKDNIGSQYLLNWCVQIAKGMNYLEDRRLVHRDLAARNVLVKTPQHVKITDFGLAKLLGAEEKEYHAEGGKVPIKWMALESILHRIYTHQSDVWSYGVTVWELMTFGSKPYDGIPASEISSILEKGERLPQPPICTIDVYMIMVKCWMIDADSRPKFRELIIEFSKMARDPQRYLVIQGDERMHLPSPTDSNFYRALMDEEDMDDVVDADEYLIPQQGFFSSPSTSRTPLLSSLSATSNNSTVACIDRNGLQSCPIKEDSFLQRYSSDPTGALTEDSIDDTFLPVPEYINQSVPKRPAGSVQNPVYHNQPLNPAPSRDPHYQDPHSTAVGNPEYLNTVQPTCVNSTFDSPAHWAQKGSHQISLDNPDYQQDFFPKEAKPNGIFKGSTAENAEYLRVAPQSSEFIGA
- runDescription: Growth inhibitory activity of compounds on BaF3 cell lines stably transfected with kinase (MTS, 48 h)
- Type: cell-based
- experimentalSetup: BaF3 cell line stably transfected with EGFR Δ19Del, read-out: Δ19Del growth inhibitory activity IC50
IC50 reference

Recorded results for 5 compounds are shown here.
>>> endpointvalue("CCc1cc(Nc2ncc(Br)c(Nc3ccc4nccnc4c3N(C)S(C)(=O)=O)n2)c(OC)cc1N1CCC(N2CCN(C)CC2)CC1")
"0.05 to 0.5 µM"
>>> endpointvalue("CCc1cc(Nc2ncc(C(C)C)c(Nc3ccc4nccnc4c3N(C)S(C)(=O)=O)n2)c(OC)cc1N1CCC(N(C)C)CC1")
"≤ 0.05 µM"
>>> endpointvalue("COc1cc(N2CCC(N3CCN(C)CC3)CC2)c(C)cc1Nc1ncc(OC)c(Nc2ccc3nccnc3c2N(C)S(C)(=O)=O)n1")
"≤ 0.05 µM"
>>> endpointvalue("COc1ccc(N2CCC(O)CC2)cc1Nc1ncc(Cl)c(Nc2ccc3nccnc3c2N(C)S(=O)(=O)C(F)(F)F)n1")
"0.5 to 2.5 µM"
>>> endpointvalue("COc1ccc(N2CCC(O)CC2)cc1Nc1ncc(Br)c(Nc2ccc3nccnc3c2N(C)S(=O)(=O)C(C)C)n1")
"0.05 to 0.5 µM"

// next item, IC50 requested
Data request: Quick check: IC50 of `COc1cc(N2CCC(N3CCN(C)CC3)CC2)c(C2CC2)cc1Nc1ncc(Br)c(Nc2ccc3nccnc3c2NS(C)(=O)=O)n1` ?
Data returned: ≤ 0.05 µM
